# measurement notes: Concentration and elimination of ADP and its metabolites in liver, kidney, muscle, fat/skin after oral ^3H-ADP for 7 d
# Type: in vivo, swine
# test context: swine, kidney, oral, 5 mg/kg b.w.
readout kind: concentration at 0.25 d (ng/g)
# output: bare number, implied unit ng/g

Reference set (5 entries):
compound	endpoint unit	concentration at 0.25 d
COc1cc(Cc2cnc(N)nc2N)cc(OC)c1N(C)C [A0]	ng/g	19000
CNc1c(OC)cc(Cc2cnc(N)nc2N)cc1OC [A1, N-monodesmethyl-ADP]	ng/g	15400
CNc1c(OC)cc(C(O)c2cnc(N)nc2N)cc1OC (stereo not drawn) [A5, 4-methylamino-α-OH-ADP]	ng/g	710
COc1cc(C(O)c2cnc(N)nc2N)cc(O)c1N(C)C (stereo not drawn) [A6, 3-OH-α-OH-ADP]	ng/g	690
COc1cc(Cc2cnc(N)nc2N)cc(OC)c1N [A2, N-didesmethyl-ADP]	ng/g	6360

Consider the record given below.
Q. Item under review: CNc1c(O)cc(C(O)c2cnc(N)nc2N)cc1OC (stereo not drawn) [A4, 3-OH-4-methylamino-ADP] . Reported concentration at 0.25 d?
A. 520

* * *

# measurement notes: Concentration and elimination of ADP and its metabolites in liver, kidney, muscle, fat/skin after oral ^3H-ADP for 7 d
# Format: in vivo, carp
# test context: po; carp kidney, after 5 mg/kg b. w. for 7 days; read-out: t1/2 of the individual compound (converted)
Listed here: items and their measured half-life.
Write the number in h without appending the unit.

chemical structure	readout kind	measured value
COc1cc(Cc2cnc(N)nc2N)cc(OC)c1N(C)C	half-life	89.3

Now let's try a different one.
Q. // half-life lookup, key: `CNc1c(OC)cc(Cc2cnc(N)nc2N)cc1OC`
A. 67.4

* * *

# measurement notes: Concentration and elimination of ADP and its metabolites in liver, kidney, muscle, fat/skin after oral ^3H-ADP for 7 d
# Format: in vivo, swine
# test context: swine, fat, oral, 5 mg/kg b.w.
readout kind: concentration at 3 d (ng/g)
Give your result in ng/g as a bare value.

Q. concentration at 3 d for `COc1cc(Cc2cnc(N)nc2N)cc(OC)c1N(C)C` ?
A. 330

* * *

# measurement notes: Concentration and elimination of ADP and its metabolites in liver, kidney, muscle, fat/skin after oral ^3H-ADP for 7 d
# Assay type: in vivo, broilers
# test context: broilers, liver, oral, 5 mg/kg b. w.
readout kind: concentration at 3 d (ng/g)
Hi! Could you send only the number? It should be in ng/g, unit omitted.

chemical structure	concentration at 3 d (ng/g)
CNc1c(OC)cc(Cc2cnc(N)nc2N)cc1OC	370

Shifting focus to the compound that follows.
Q. # lookup: concentration at 3 d of `COc1cc(Cc2cnc(N)nc2N)cc(OC)c1N(C)C`
A. 1150

* * *

# measurement notes: Concentration and elimination of ADP and its metabolites in liver, kidney, muscle, fat/skin after oral ^3H-ADP for 7 d
# Format: in vivo, swine
# test context: swine, muscle, oral, 5 mg/kg b.w.
# concentration at 3 d listing for each entry below

compound	concentration at 3 d
CNc1c(OC)cc(Cc2cnc(N)nc2N)cc1OC [A1, N-monodesmethyl-ADP]	50 ng/g

Then this compound:
Q. I have this compound here, COc1cc(Cc2cnc(N)nc2N)cc(OC)c1N(C)C [A0] , and I need its recorded concentration at 3 d.
A. 380 ng/g
